Listed here: items and their measured Activity (U/mL).
# System: carbonyl reductase from Lactococcus lactis
# protocol_text: CRLL activity assay (decrease of NADPH absorption); substrate table of the isolated carbonyl reductase
# Format: biochemical
# conditions_used: Substrate (20 mM)
# From the text: The construct crll-pkk223-3 as well as crll-his-pkk223-3 were both transformed separately into the E. coli host strain HB101 for expression.

compound	units_symbol	Activity (U/mL)
CCCCCC=O	U/mL	45.82
OCCOCCO	U/mL	0.38
COC(=O)C(=O)c1ccccc1 [Methyl benzoylformate]	U/mL	3.86
CCCCC(C)=O	U/mL	1.28
CC(O)CO (centres unmarked)	U/mL	0.025
COC(=O)CC(C)=O [Methyl acetoacetate]	U/mL	36.7
CCCC=O	U/mL	12.7
CC(=O)CC(C)C	U/mL	21.7
O=C1CCCC2CCCCC12 (centres unmarked)	U/mL	5.29
CCOC(=O)CC(=O)c1ccccc1 [ethyl benzoylacetate]	U/mL	4.98
CC(=O)C(C)(C)C	U/mL	22.5
